Hello, the source for this data is patent US20100311714A1, in case you need it.

measured_on: PI3K delta (Homo sapiens)
Construct: for the full-length p110-d subunit are generated and fused by overlapping PCR; His tag (C); made in house; host or cells: baculovirus BV1060; Tn5 (Trichoplusia ni) or TiniPro insect cells
Sequence (O00329 with tags, fused parts or gaps limits assumed): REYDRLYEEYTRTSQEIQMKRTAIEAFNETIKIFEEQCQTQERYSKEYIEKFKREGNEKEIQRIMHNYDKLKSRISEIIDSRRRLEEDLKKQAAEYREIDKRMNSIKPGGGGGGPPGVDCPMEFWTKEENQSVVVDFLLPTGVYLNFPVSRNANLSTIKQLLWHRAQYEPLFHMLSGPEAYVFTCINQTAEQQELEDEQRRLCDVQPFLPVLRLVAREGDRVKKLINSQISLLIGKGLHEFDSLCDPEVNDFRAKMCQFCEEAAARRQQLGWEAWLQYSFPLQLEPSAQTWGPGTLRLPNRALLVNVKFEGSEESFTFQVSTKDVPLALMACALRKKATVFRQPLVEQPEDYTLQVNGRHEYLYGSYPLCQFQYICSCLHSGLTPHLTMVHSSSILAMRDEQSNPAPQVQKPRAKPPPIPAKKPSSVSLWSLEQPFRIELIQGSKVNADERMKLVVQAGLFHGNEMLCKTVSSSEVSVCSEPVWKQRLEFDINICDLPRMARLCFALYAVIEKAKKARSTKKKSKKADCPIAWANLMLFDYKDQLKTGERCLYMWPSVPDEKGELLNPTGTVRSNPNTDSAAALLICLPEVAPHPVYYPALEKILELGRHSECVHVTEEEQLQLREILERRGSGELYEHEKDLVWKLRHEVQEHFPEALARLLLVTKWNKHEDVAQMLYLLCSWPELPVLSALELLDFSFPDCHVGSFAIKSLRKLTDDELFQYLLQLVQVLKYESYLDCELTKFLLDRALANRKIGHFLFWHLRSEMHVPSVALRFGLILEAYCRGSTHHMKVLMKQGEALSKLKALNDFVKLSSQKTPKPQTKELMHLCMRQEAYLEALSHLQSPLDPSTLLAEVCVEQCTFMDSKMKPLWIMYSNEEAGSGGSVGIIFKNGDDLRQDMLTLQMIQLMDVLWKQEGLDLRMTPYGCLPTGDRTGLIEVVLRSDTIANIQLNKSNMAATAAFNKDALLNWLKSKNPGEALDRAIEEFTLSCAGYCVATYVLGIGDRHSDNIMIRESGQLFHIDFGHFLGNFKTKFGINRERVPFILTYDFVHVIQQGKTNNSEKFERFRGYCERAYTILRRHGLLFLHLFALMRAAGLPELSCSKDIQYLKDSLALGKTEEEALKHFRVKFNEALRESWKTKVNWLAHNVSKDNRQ
assay_explanation: PI3K delta kinase assay (Kinase-Glo luminescence)
Assay type: biochemical
recorded_conditions: read-out: EPK_PI3Kdelta/IC50
Description: In a more preferred assay, the kinase reaction is performed in a final volume of 10 μL per well of a low volume non binding CORNING, 384 well black plate (Cat. No. #3676). The final concentrations of ATP and phosphatidyl inositol (PI) in the assay are 1 μM and 10 μg/mL respectively. The reaction is started by the addition of ATP. The components of the assay are added per well as follows: […]
Decision: IC50 beneath 30 nM gives Condition met; IC50 meeting or exceeding 30 nM gives Condition not met.

q: IC50 strictly < 30 nM for this compound? CNc1ccc(-c2ccc3ncc4c(c3c2)n(-c2ccc(N(C)CCOC)nc2C)c(=O)n4C)cn1
a: Condition not met

q: Is it true that IC50 reported for COCCN(C)c1ccc(-n2c(=O)n(C)c3cnc4ccc(-c5cnc(N(C)C)nc5)cc4c32)c(C)n1 is less than 30 nM?
a: Condition not met

q: Dear colleague, could you confirm whether IC50 of Cc1ccc(-n2c(=O)n(C)c3cnc4ccc(-c5cnc6c(ccn6C)c5)cc4c32)c(C)n1 falls below 30 nM? Thanks.
a: Condition met

q: Check if IC50 falls below 30 nM for COCc1ncc(-c2ccc3ncc4c(c3c2)n(-c2ccc(N3CCC3)nc2C)c(=O)n4C)cc1OC .
a: Condition not met

q: IC50 strictly < 30 nM for this compound? CCNc1cc(-c2ccc3ncc4c(c3c2)n(-c2ccc(OC)nc2Cl)c(=O)n4C)cnc1C
a: Condition met

q: Identify whether the compound COCCOc1ccc(-n2c(=O)n(C)c3cnc4ccc(-c5cnc(COC)c(OC)c5)cc4c32)c(C)n1 records IC50 below 30 nM.
a: Condition not met

More entries:
q: Lab note: confirm whether the reported IC50 for this compound is below 30 nM, equality not counting. compound: COc1ccc(-n2c(=O)n(C)c3cnc4ccc(-c5cnc(C(OC)OC)c(OC)c5)cc4c32)c(OC)n1
a: Condition not met

q: Criterion: IC50 strictly below 30 nM. Is it met by CNC(=O)c1cc(-c2ccc3ncc4c(c3c2)n(-c2ccc(F)nc2C)c(=O)n4C)cnc1N ?
a: Condition met

q: Please let me know if COc1ccc(-n2c(=O)n(C)c3cnc4ccc(-c5cnc(CO)c(OC)c5)cc4c32)c(C)n1 shows IC50 below 30 nM.
a: Condition met

q: Answer whether the compound CCNc1cc(-c2ccc3ncc4c(c3c2)n(-c2cnc(F)cc2C)c(=O)n4C)cnc1C has IC50 strictly less than 30 nM
a: Condition met

q: Does this compound meet the criterion IC50 < 30 nM? COc1nc(N2CCNCC2)ccc1-n1c(=O)n(C)c2cnc3ccc(-c4cnc(N(C)C)nc4)cc3c21
a: Condition met

q: Please check: IC50 for Cc1nc(N2CCCC2)ccc1-n1c(=O)n(C)c2cnc3ccc(-c4cncc(C(C)(C)O)c4)cc3c21 , strictly under 30 nM or not?
a: Condition met
